Listed below: Invasion reduced by >50% at 5 µM NBX values for each entry.
Target: Canine Parvovirus Type 2 (CPV2) (Canine parvovirus type 2)
Test: cell-based or functional assay
reported-property: Invasion reduced by >50% at 5 µM NBX

* NBX0414 (VHH) VHH: QVQLQESGGGLVQAGGSLRLSCRASGRTFSSSSMGWFRQAPGKERDFVAAISWDGASTRYADSVKGRFTISRDNAKNTVYLQMNSLKPEDTAVYYCAASTMDFIVLLTKWYPYWGQGTQVTVSS | > 50%
* NBX0416 (VHH) VHH: QVQLQESGGGLVQAGGSLRLSCAASGRTFSSSSMGWFRQAPGKERDFVAAINWSGDSTRYADSVKGRFTISRDNAKSTVYLQMNSLKPEDTAVYYCAASTMDFIVLLTKWYPYWGQGTQVTVSS | ≤ 50%
* NBX0431 (VHH) VHH: QVQLQQSGGGLVQAGGSLRLSCAASGRTFSSYAMGWFRQAPGKEREYVAGINRFGGTYYADFVKGRFTISRDNAKNTVYLQMNSLKPEDTAVYYCAASRILGLSTAREDYNYWGQGTQVTVSS | ≤ 50%
* NBX0426 (VHH) VHH: QVQLQESGGGLVQPGGSLRLSCAASGIGDRPYVMAWHRQAPGKQRELVATITRDGYTNYADTVKGRFVVSRDNAQNTVYLQMNYLKPADTAVYYCRAYNAYLNLGYWGQGTQVTVST | > 50%
